melting point values, listed per item

Example results:
NC(=O)NN=Cc1ccc(OC2CCCCC2)cc1
215 to 217 °C
COC(=O)Cn1ccc2ccc(-c3nccc(-c4ccccc4)n3)cc21
111 °C
CC(C)COC[C@H](CC(C)C)NC(=O)[C@H]1O[C@@H]1C(=O)OC(C)(C)C
73.5 to 74.5 °C
O=C(Nc1cc(Cl)cc(C(F)(F)F)c1)Oc1ccc([N+](=O)[O-])cc1
144 to 146 °C
O=C1CCC(c2ccc(C3=NNC(=O)CC3)cc2)=NN1
> 250 °C

What does the data say about its melting point? Entry: `BrCCCCCCCCCCCCCCCCCCCCCCCCBr`
105 °C

What does the data say about its melting point? Entry: N#CC(C=O)c1ccccc1 (stereo not given)
161 to 163 °C

What does the data say about its melting point? Entry: `O=C(CNc1ccc(F)cc1)Nc1ccccc1C(=O)O`
217 to 219 °C

What does the data say about its melting point? Entry: Cc1cc(C2(C(F)(F)F)C=NC(c3ccccc3)C2)ccc1NC(=O)c1cccc(I)c1C(=O)NC(C)C (stereo not given)
118 to 120 °C

What does the data say about its melting point? Entry: `COc1c(C(=O)O)csc1S(=O)(=O)Oc1ccc(-c2c3ccccc3c(Br)c3sc(C)c(C)c23)cc1C1CCCC1`
> 225 °C

###

melting point values, listed per item

CCCCCCCCCCCCCCCCC(OC)C(=O)OC (centres undefined)
33 to 36 °C

What does the data say about its melting point? Entry: `C=CCCN(CCC=C)Cc1noc(-c2ncn3c2[C@@H]2CCN2C(=O)c2c(Cl)cccc2-3)n1`
115 to 120 °C

What does the data say about its melting point? Entry: `O=C(Nc1ccc(C(=O)N2CCc3cn[nH]c3-c3sccc32)cc1)c1ccccc1-c1ccccc1`
280 to 284 °C

What does the data say about its melting point? Entry: `CCOC(=O)CON(C(=S)Nc1cc(Cl)ccc1C)C(C)C`
83 to 85 °C

What does the data say about its melting point? Entry: `CC(C)c1[nH]n(-c2c(Cl)cc(Cl)cc2Cl)c2nc(Cc3ccc(N=C=O)cc3)nc(=O)c1-2`
233 to 235 °C

What does the data say about its melting point? Entry: `CCN(c1ccc(C#N)cc1[N+](=O)[O-])S(=O)(=O)c1ccc(Cl)s1`
102 to 103 °C

What does the data say about its melting point? Entry: `COC(=O)N[C@@H]1CCc2ccc(Br)cc2C1=O`
111 to 112 °C

What does the data say about its melting point? Entry: `Nc1c(Cl)cc2c3c(cccc13)C(=O)N(O)C2=O`
354 to 359 °C

What does the data say about its melting point? Entry: `COc1nc(C)c(C)nc1N(C)C(=O)N1CCN(c2cc([N+](=O)[O-])cc([N+](=O)[O-])c2)CC1`
133 to 135 °C

###

measured_quantity: melting point

O=C(O)CP(=O)(O)CCCc1ccccc1
118 to 119 °C

What does the data say about its melting point? Entry: `O=C(c1ccc(-c2cnc3c(c2)N(Cc2ccccc2)CCN3)cc1)N1CCC(N2CCCC2)CC1`
120 °C

What does the data say about its melting point? Entry: `O=C(O)c1ccc(Nc2nccc(-c3cccnc3)n2)cc1`
311 to 317 °C

What does the data say about its melting point? Entry: COc1ccc(CC(NC(=O)CNC(=O)OCc2ccccc2)C(=O)NC2C(C(=O)O)OC(n3cnc4c(NC(=O)c5ccccc5)ncnc43)C2O)cc1 (stereo not given)
78 to 84 °C

What does the data say about its melting point? Entry: `CN(CC(N)=O)C1Cc2ccccc2C1`
122 to 123 °C

What does the data say about its melting point? Entry: `COC1=CC(=O)c2c(C)cc(C)cc2C1=O`
146 to 148 °C

What does the data say about its melting point? Entry: `O=C(Nc1ccc(-n2nc(C(F)(F)F)cc2C(F)(F)F)cn1)c1ccccc1F`
153 to 155 °C

What does the data say about its melting point? Entry: `CCOC(=O)N1CCN(c2cc3ccccc3c(=O)[nH]2)CC1`
191 to 192 °C

What does the data say about its melting point? Entry: `Cc1ccccc1C=CC(=O)c1c(C)n(CCN2CCOCC2)c2ccccc12`
131 to 135 °C

What does the data say about its melting point? Entry: `CCCCN1Cc2[nH]c3ccccc3c2C1`
151 to 152 °C
